test: folding stability dG unfold (combined trypsin and chymotrypsin); higher = more stable
Each item that follows carries a reported folding stability dG unfold.

Solved entries:
SGMDVFVASDPGPSYLRAEARLPGGESRVLTSGPPEEARALVERLAAEEDPAMAVRRVEEVPPGELPPELSA [r9_137_JUSTAS]
< -1 kcal/mol
SAGGSAGGSAGGDNIMIKIRNPGKPRTFMIKDPEQLKNMSLKELADELVDKHGWPVEIYPSAGGSAGGSAGG [r7_259_TrROS]
< -1 kcal/mol

Consider the additional sequence presented here.
Dear colleague, please send me the reported folding stability dG unfold for SAGGMTEIEPDSEEKAEAEIEKVVEEEAEKALKSEKKNVTIKVDVKVVDPVTGKSKTYPVEKLVKLPSAGGS [r8_163_JUSTAS] when you can.
< -1 kcal/mol

Where these numbers come from: the supplement of paper PMC12764529
